assay: Inhibition of rat serum BuChE using butyrylthiocholine iodide as substrate after 15 mins by Ellman method; assay type: cell-free
pIC50: −log10 of the molar value.
In this section we review reported pIC50 values for a set of molecules.

chem_smiles: COc1cc2oc(-c3cccc(OC(=O)N(C(C)C)C(C)C)c3)cc(=O)c2c(O)c1OC
pIC50: < 4.00
//
chem_smiles: COc1cc2oc(-c3cccc(OC(=O)N(C(C)C)C(C)C)c3)cc(=O)c2c(OC)c1OC
pIC50: < 4.00
//
chem_smiles: CCN(C)C(=O)Oc1cccc(-c2cc(=O)c3c(O)c(OC)c(OC)cc3o2)c1
pIC50: < 4.00

---

Listed here are compounds together with their documented Ratio IC50.
species: Rattus norvegicus; assay: Selectivity index, ratio of IC50 for rat serum BuChE to IC50 for rat cortex AChE; assay type: cell-free
parameter: Ratio IC50

chem_smiles: COc1cc2oc(-c3ccc(OC(=O)N4CCOCC4)cc3)cc(=O)c2c(OC)c1OC
val: > 1.5

chem_smiles: COc1cc2oc(-c3cccc(OC(=O)N(C(C)C)C(C)C)c3)cc(=O)c2c(OC)c1OC
val: > 1.1

chem_smiles: COc1cc2oc(-c3cccc(OC(=O)N(C(C)C)C(C)C)c3)cc(=O)c2c(O)c1OC
val: > 1
